- TARGET ENTITY: T1, A*0301 (human, UniProt P61769 21-119)
- T1 construct: MHC class I molecule; form in the assay not described; also called HLA-A*0301
- T1 sequence (P61769 21-119 limits assumed, chain 2 of 2, other chains not shown): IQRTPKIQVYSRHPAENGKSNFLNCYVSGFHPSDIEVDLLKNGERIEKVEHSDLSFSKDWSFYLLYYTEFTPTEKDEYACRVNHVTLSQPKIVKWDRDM
- ASSAY INFO: HLA binding, candidate-epitope table; assay not described
OBSERVED PROPERTY: pIC50
Numbers only, as −log10 of the molar value.

# pIC50 of VVFGILIKR (also called 1095.51) [Her2/neu.669] = 7.00
